Measured values drawn from PubChem BioAssay (NCI) for this set.

System: SNB-78 CNS
Assay: NCI tumour cell line growth inhibition, 48 h
Overview of reported TGI across a group of compounds:

[
  {
    "compound": "Cc1ccc(NC(=O)CC2C(=O)Nc3ccccc3S2(=O)=O)c(C)c1 (stereo not drawn)",
    "measurement_target": "SNB-78 CNS",
    "TGI": "56 µM"
  },
  {
    "compound": "O=C(CC1SC(=Nc2ccccc2Cl)NC1=O)Nc1ccc(Cl)cc1Cl (stereo not drawn)",
    "measurement_target": "SNB-78 CNS",
    "TGI": "> 100 µM"
  },
  {
    "compound": "NC(=O)c1csc(C2OC(COP(=O)(O)CP(=O)(O)OCC3OC(n4cnc5c(N)ncnc54)C(O)C3O)C(O)C2O)n1 (stereo not drawn)",
    "measurement_target": "SNB-78 CNS",
    "TGI": "> 100 µM"
  }
]

----------
log10 of TGI listing for selected molecules.
Test system: KM12 colon
Test: NCI tumour cell line growth inhibition, 48 h
measurement_label: log10 of TGI (log10 of the value in µM)

[
  {
    "molecule": "N#CCCN1C/C(=C/c2ccc(Cl)cc2)C(=O)/C(=C/c2ccc(Cl)cc2)C1",
    "result_value": -0.08
  },
  {
    "molecule": "c1ccc2cc(-c3n(Cc4ccc5ccccc5n4)c4ccccc4[n+]3Cc3ccc4ccccc4n3)ccc2c1",
    "result_value": 0.08
  },
  {
    "molecule": "O[C@@]12Cc3c([nH]c4ccccc34)[C@@H]3Oc4cccc5c4[C@@]31CCN(CC1CC1)[C@@H]2C5",
    "result_value": 1.73
  },
  {
    "molecule": "Cc1cccc2c3c(sc12)C(c1ccc(Cl)cc1)C(C#N)=C(N)O3 (stereo unspecified)",
    "result_value": 1.03
  },
  {
    "molecule": "COC(=O)C(CCSC)NC(=O)CNC(=O)CSc1nnc(COc2ccc(Cl)cc2)n1-c1ccccc1 (stereo unspecified)",
    "result_value": 1.65
  }
]

----------
System: SN12C renal
Assay: NCI tumour cell line growth inhibition, 48 h; in the data active = GI50 below about 0.43 µM; inactive = the rest
Possible outcomes: active, inactive

[
  {
    "compound": "COC(=O)[C@H]1CCCN1C(=O)[C@H]1CCCN1C(=O)[C@@H](Cc1c[nH]c2ccccc12)NC(=S)Nc1cc(C(F)(F)F)cc(C(F)(F)F)c1",
    "class_name": "inactive"
  },
  {
    "compound": "COc1ccc(N(CC(=O)NCCC[Te]c2ccccc2)C(=O)CNC(=O)OC(C)(C)C)cc1",
    "class_name": "inactive"
  },
  {
    "compound": "CCC1(O)C(=O)OCc2c1cc1n(c2=O)Cc2cc3c(NC(=O)CN)cccc3nc2-1 (configuration not stated)",
    "class_name": "active"
  },
  {
    "compound": "C#CCNC(=O)[C@H](CC)[C@H]1CC[C@H](C)[C@H]([C@@H](C)[C@H](O)[C@H](C)C(=O)[C@H](CC)C2O[C@]3(C=CC(=O)[C@]4(CC[C@@](C)([C@H]5CC[C@](O)(CC)[C@H](C)O5)O4)O3)[C@H](C)C[C@@H]2C)O1 (some centres not stated)",
    "class_name": "inactive"
  },
  {
    "compound": "c1ccc2cc(-c3n(Cc4ccc5ccccc5n4)c4ccccc4[n+]3Cc3ccc4ccccc4n3)ccc2c1",
    "class_name": "active"
  },
  {
    "compound": "COc1ncnc(NS(=O)(=O)c2ccc(N=C3C(=O)N(CN4CCN(c5c(F)cc6c(=O)c(C(=O)O)cn(C7CC7)c6c5OC)CC4C)c4ccc(Br)cc43)cc2)c1OC (configuration not stated)",
    "class_name": "inactive"
  },
  {
    "compound": "CC(C)(O)CNc1nc(Nc2ccnc(C(F)(F)F)c2)nc(-c2cccc(C(F)(F)F)n2)n1",
    "class_name": "inactive"
  }
]

----------
Tested on: PC-3 prostate
Assay: NCI tumour cell line growth inhibition, 48 h; in the data active means GI50 below about 0.43 µM; inactive means the rest
Outcome codes: yes for active, no for inactive

[
  {
    "compound": "C/C(=C\\c1cnc(C)s1)[C@@H]1C[C@@H]2O[C@@H]2CCC[C@H](C)[C@H](O)[C@@H](C)C(=O)C(C)(C)[C@@H](O)CC(=O)O1",
    "class_name": "yes"
  },
  {
    "compound": "c1ccc2c(c1)Nc1ccncc1S2",
    "class_name": "no"
  },
  {
    "compound": "C(=N/N(Cc1ccccc1)Cc1ccccc1)/c1ccccc1",
    "class_name": "no"
  },
  {
    "compound": "CCC1(O)C(=O)OCc2c1cc1n(c2=O)Cc2cc3c(NC(=O)CN)cccc3nc2-1 (stereo unspecified)",
    "class_name": "no"
  },
  {
    "compound": "CC1(C)CC(=O)C2=C(C1)OC(N)=C(c1nc(-c3ccccc3)cs1)C2c1ccc(Br)cc1 (stereo unspecified)",
    "class_name": "no"
  },
  {
    "compound": "Cc1cccc2c3c(sc12)C(c1ccc(Cl)cc1)C(C#N)=C(N)O3 (stereo unspecified)",
    "class_name": "yes"
  },
  {
    "compound": "CCN(CC)CCCCCCNc1cc(OC)cc2cccnc12",
    "class_name": "no"
  },
  {
    "compound": "Cc1cc(C)nc(SC2=C(Nc3cc(Cl)ccc3O)C(=O)N(Cc3ccccc3)C2=O)n1",
    "class_name": "no"
  },
  {
    "compound": "COc1ccc(-c2nc(/C=C3\\SC(=NCc4ccccc4)NC3=O)c3ccccn23)cc1",
    "class_name": "no"
  },
  {
    "compound": "COC(=O)c1cncc(/C=C/c2c(C)cc(O)cc2C)c1",
    "class_name": "no"
  },
  {
    "compound": "N#CCN1CCn2c1nsc2=S",
    "class_name": "no"
  },
  {
    "compound": "COC(=O)CCCCC(=O)c1c(C)[nH]c(/C=C2\\N=C(c3ccc[nH]3)C=C2OC)c1C",
    "class_name": "no"
  },
  {
    "compound": "C#CCNC(=O)[C@H](CC)[C@H]1CC[C@H](C)[C@H]([C@@H](C)[C@H](O)[C@H](C)C(=O)[C@H](CC)C2O[C@]3(C=CC(=O)[C@]4(CC[C@@](C)([C@H]5CC[C@](O)(CC)[C@H](C)O5)O4)O3)[C@H](C)C[C@@H]2C)O1 (stereo partly specified)",
    "class_name": "no"
  },
  {
    "compound": "CC1OC(OC2C(O)CC(OC3C(O)CC(OC4CCC5(C)C(CCC6C5CC(O)C5(C)C(C7=CC(=O)OC7)CCC65O)C4)OC3C)OC2C)CC(O)C1O (stereo unspecified)",
    "class_name": "yes"
  },
  {
    "compound": "CCCCCO/N=C\\c1c2c(O)c3c(O)c(C)c4c(c3c1O)C(=O)C(C)(O/C=C\\C(OC)C(C)C(OC(C)=O)C(C)C(O)C(C)C(O)C(C)/C=C\\C=C(\\C)C(=O)N2)O4 (stereo unspecified)",
    "class_name": "no"
  },
  {
    "compound": "Cc1cc(N(CCCNc2ccnc3cc(Cl)ccc23)Cc2ccco2)nc(N2CCN(C)CC2)n1",
    "class_name": "no"
  },
  {
    "compound": "Oc1c(I)cc(I)c2cccnc12",
    "class_name": "no"
  },
  {
    "compound": "Oc1cccc2ccc(N/N=C/c3cc(CN4CCOCC4)c(O)c4ncccc34)nc12",
    "class_name": "yes"
  },
  {
    "compound": "CC1=C(CC(=O)c2cccc([N+](=O)[O-])c2)C(=O)c2ccccc2C1=O",
    "class_name": "no"
  },
  {
    "compound": "O=[N+]([O-])c1ccc(N2CCOCC2)c2c1no[n+]2[O-]",
    "class_name": "no"
  },
  {
    "compound": "c1ccc2cc(-c3n(Cc4ccc5ccccc5n4)c4ccccc4[n+]3Cc3ccc4ccccc4n3)ccc2c1",
    "class_name": "yes"
  }
]

----------
Tested on: HS 578T breast
Test: NCI tumour cell line growth inhibition, 48 h
measurement_label: TGI

[
  {
    "molecule": "C[C@]12C[C@@H](OC(=O)[C@]1(C)O)[C@@H]([C@]1(O)CC[C@H]3[C@@H]4C[C@H]5O[C@]56C[C@H]5O[C@H]5C(=O)[C@]6(C)[C@H]4CC[C@@]31C)C2",
    "measurement_label": "TGI",
    "result_value": "> 50 µM"
  },
  {
    "molecule": "CCOC(=O)N1N=C(/C(C)=N/OC)C(C)S1=O (centres undefined)",
    "measurement_label": "TGI",
    "result_value": "> 100 µM"
  },
  {
    "molecule": "COc1ccc(/C(Br)=C2\\OC(=O)c3ccccc32)cc1",
    "measurement_label": "TGI",
    "result_value": "> 10 µM"
  },
  {
    "molecule": "COC(=O)/C=C(\\CC(=O)OC)n1nnnc1[C@@H]1C[C@H](COC(c2ccccc2)(c2ccccc2)c2ccccc2)[C@H]2OC(C)(C)O[C@H]21",
    "measurement_label": "TGI",
    "result_value": "> 100 µM"
  },
  {
    "molecule": "c1ccc2oc(-c3ccc(-c4nc5ccccc5o4)c4c3CC4)nc2c1",
    "measurement_label": "TGI",
    "result_value": "> 100 µM"
  },
  {
    "molecule": "Oc1ccc2cc(Br)ccc2c1-c1c(O)ccc2ccc(Br)cc12",
    "measurement_label": "TGI",
    "result_value": "24.2 µM"
  },
  {
    "molecule": "[N-]=[N+]=NI1OC(=O)c2ccccc21",
    "measurement_label": "TGI",
    "result_value": "> 100 µM"
  },
  {
    "molecule": "O=C1c2sccc2-c2cccc3cccc1c23 (tested in a mixture with another compound)",
    "measurement_label": "TGI",
    "result_value": "6.72 µM"
  },
  {
    "molecule": "CC(C)=CCN1CC(C)C(=O)Nc2ccccc21 (centres undefined)",
    "measurement_label": "TGI",
    "result_value": "> 100 µM"
  }
]
